# assaySummary: Extraction ratio in rat liver microsomes at 1 uM
# Assay type: ADME
# experimentalSetup: read-out: ERH
measuredEndpoint: hepatic extraction ratio at 1 µM
Give only the figure.

Given C[C@H]1Cn2c(nnc2-c2cccnc2)C(=O)N1Cc1cccc(C(F)(F)F)c1Cl , state its recorded hepatic extraction ratio at 1 µM.
0.3

====

# System: Brain
# assaySummary: Drug uptake in Sprague-Dawley rat brain at 10 mg/kg, po at Tmax
# Assay type: ADME, organism-based
# experimentalSetup: in vivo
# Drug uptake annotations
Write it as a number; the unit ng/mL goes unstated.

Record excerpt, results attached:
Given C[C@H]1Cn2c(nnc2-c2ncccn2)C(=O)N1Cc1cccc(C(F)(F)F)c1Cl , state its recorded Drug uptake.
116

Given C[C@H]1Cn2c(nnc2-c2cc[nH]n2)C(=O)N1Cc1cccc(C(F)(F)F)c1Cl , state its recorded Drug uptake.
41

Given C[C@H]1Cn2c(nnc2-c2cccnc2)C(=O)N1Cc1cccc(C(F)(F)F)c1Cl , state its recorded Drug uptake.
43

Would you kindly look at the next entry?
Given C[C@H]1Cn2c(nnc2-c2cnccn2)C(=O)N1Cc1cccc(C(F)(F)F)c1Cl , state its recorded Drug uptake.
672

====

# assaySummary: Clearance in rat at 1 mg/kg, iv and 5 mg/kg, po
# Format: ADME, organism-based
# experimentalSetup: in vivo
measuredEndpoint: clearance
Note: state the figure and append the unit.

Record excerpt, results attached:
Given C[C@H]1Cn2c(nnc2-c2cnccn2)C(=O)N1Cc1cccc(C(F)(F)F)c1Cl , state its recorded clearance.
19 mL/min/kg

Given C[C@H]1Cn2c(nnc2-c2ncccn2)C(=O)N1Cc1cccc(C(F)(F)F)c1Cl , state its recorded clearance.
11 mL/min/kg

More entries:
Given C[C@H]1Cn2c(nnc2-c2cccnc2)C(=O)N1Cc1cccc(C(F)(F)F)c1Cl , state its recorded clearance.
21 mL/min/kg

Given C[C@H]1Cn2c(nnc2-c2cc[nH]n2)C(=O)N1Cc1cccc(C(F)(F)F)c1Cl , state its recorded clearance.
13 mL/min/kg

====

# testTarget: P2X purinoceptor 7 (Rattus norvegicus, UniProt Q64663)
# Sequence (Q64663 whole entry): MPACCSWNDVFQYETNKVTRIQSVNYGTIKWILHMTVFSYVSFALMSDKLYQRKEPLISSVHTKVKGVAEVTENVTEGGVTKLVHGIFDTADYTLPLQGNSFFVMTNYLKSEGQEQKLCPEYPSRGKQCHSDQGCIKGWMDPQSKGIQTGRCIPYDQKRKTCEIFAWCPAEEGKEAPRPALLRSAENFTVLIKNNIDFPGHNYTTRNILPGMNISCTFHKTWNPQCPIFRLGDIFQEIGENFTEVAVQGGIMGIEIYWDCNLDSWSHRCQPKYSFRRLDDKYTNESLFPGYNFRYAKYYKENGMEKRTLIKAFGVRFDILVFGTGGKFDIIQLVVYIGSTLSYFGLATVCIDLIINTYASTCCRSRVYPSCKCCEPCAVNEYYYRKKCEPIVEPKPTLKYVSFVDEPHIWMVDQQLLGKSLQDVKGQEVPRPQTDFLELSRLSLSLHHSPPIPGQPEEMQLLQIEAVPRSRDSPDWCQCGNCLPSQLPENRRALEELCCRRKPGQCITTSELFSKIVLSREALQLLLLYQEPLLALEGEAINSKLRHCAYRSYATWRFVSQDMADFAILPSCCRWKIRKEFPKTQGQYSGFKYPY
# assaySummary: Antagonist activity at rat P2X7 receptor expressed in 1321N1 cells assessed as inhibition of Bz-ATP-induced Ca2+ flux after 30 mins by FLIPR assay
measuredEndpoint: pIC50
Scale: negative log10 of molar concentration, which is what pIC50 denotes.

Provide value of pIC50 for this record tested with P2X purinoceptor 7 (Rattus norvegicus, UniProt Q64663): C[C@H]1Cn2c(nnc2-c2ccccn2)C(=O)N1Cc1cccc(C(F)(F)F)c1Cl
6.46

More entries:
Provide value of pIC50 for this record tested with P2X purinoceptor 7 (Rattus norvegicus, UniProt Q64663): C[C@H]1Cn2c(nnc2-c2cnccn2)C(=O)N1Cc1c(Cl)cccc1Cl
5.62
